# Test: LD50 by the Litchfield-Wilcoxon method on mice, progressive oral doses
# Experimental Context: mouse, in vivo
Readout: LD50
Your reply should be a number followed by the unit it is expressed in.

Q: Supply recorded LD50 for C[C@H](C(=O)O)c1ccc2oc(-c3ccc(F)cc3)nc2c1 [Flunoxaprofen] here.
A: 724 mg/kg

----------
# Test: LD50 by the Litchfield-Wilcoxon method on mice, progressive oral doses
# Experimental Context: mouse, in vivo, expressed as flunoxaprofen
Readout: LD50

Q: Report LD50, nothing else, for this molecule: C[C@H](C(=O)O)c1ccc2oc(-c3ccc(F)cc3)nc2c1 (racemic) [Example 1]
A: 720 mg/kg

Values were extracted from patent US5120851A.
